experiment: in vivo; details: female, C57BL/6J, mouse, ip, 50 mg/kg, Tmax in plasma, Mean
readout: Tmax (min)
Write down the numeric answer in min and omit the unit.

Lab note: CCO[C@@H]1OC(=O)C[C@@H]1NC(=O)[C@@H]1CCCN1C(=O)[C@@H](NC(=O)c1ccc(N)c(Cl)c1)C(C)(C)C [VX-765] gave Tmax of 45

----------
assay: VX-765 and VRT-043198 pharmacokinetics (LC-MS/MS) in plasma, whole brain and CSF after a single IP dose of VX-765; settings: read-out: Cmax in plasma, Mean; plasma; single IP 50 mg/kg VX-765
readout: Cmax (µM)
Write down the numeric answer in µM and omit the unit.

Lab note: CC(C)(C)[C@H](NC(=O)c1ccc(N)c(Cl)c1)C(=O)N1CCC[C@H]1C(=O)N[C@H](C=O)CC(=O)O gave Cmax of 259

----------
test: in vivo; details: female, C57BL/6J, mouse, ip, 50 mg/kg, CSF concentration, Mouse 1
readout: concentration at 0.25 h (nM)
Write down the numeric answer in nM and omit the unit.

Lab note: CCO[C@@H]1OC(=O)C[C@@H]1NC(=O)[C@@H]1CCCN1C(=O)[C@@H](NC(=O)c1ccc(N)c(Cl)c1)C(C)(C)C gave concentration at 0.25 h of 210

----------
experiment: VX-765 and VRT-043198 pharmacokinetics (LC-MS/MS) in plasma, whole brain and CSF after a single IP dose of VX-765; conditions: read-out: Cmax in CSF, Mouse 1; CSF; single IP 50 mg/kg VX-765
readout: Cmax (µM)
Write down the numeric answer in µM and omit the unit.

Lab note: CC(C)(C)[C@H](NC(=O)c1ccc(N)c(Cl)c1)C(=O)N1CCC[C@H]1C(=O)N[C@H](C=O)CC(=O)O [VRT-043198] gave Cmax of 82.6

----------
test: in vivo; settings: female, C57BL/6J, mouse, ip, 50 mg/kg, CSF concentration, Mouse 2
readout: concentration at 0.25 h (nM)
Write down the numeric answer in nM and omit the unit.

Lab note: CCO[C@@H]1OC(=O)C[C@@H]1NC(=O)[C@@H]1CCCN1C(=O)[C@@H](NC(=O)c1ccc(N)c(Cl)c1)C(C)(C)C [VX-765] gave concentration at 0.25 h of 450

----------
test: in vivo; conditions: female, C57BL/6J, mouse, ip, 50 mg/kg, plasma concentration, Mean
readout: concentration at 6 h
Mention the unit after the number when you answer.

Lab note: CCO[C@@H]1OC(=O)C[C@@H]1NC(=O)[C@@H]1CCCN1C(=O)[C@@H](NC(=O)c1ccc(N)c(Cl)c1)C(C)(C)C gave concentration at 6 h of 330 nM

----------
experiment: in vivo; conditions: female, C57BL/6J, mouse, ip, 50 mg/kg, brain concentration, Mean
readout: concentration at 0.5 h (nM)
Write down the numeric answer in nM and omit the unit.

Lab note: CCO[C@@H]1OC(=O)C[C@@H]1NC(=O)[C@@H]1CCCN1C(=O)[C@@H](NC(=O)c1ccc(N)c(Cl)c1)C(C)(C)C [VX-765] gave concentration at 0.5 h of 70

----------
test: in vivo; conditions: female, C57BL/6J, mouse, ip, 50 mg/kg, Cmax in plasma, Mouse 2
readout: Cmax (µM)
Write down the numeric answer in µM and omit the unit.

Lab note: CCO[C@@H]1OC(=O)C[C@@H]1NC(=O)[C@@H]1CCCN1C(=O)[C@@H](NC(=O)c1ccc(N)c(Cl)c1)C(C)(C)C gave Cmax of 1.63

----------
assay: in vivo; details: female, C57BL/6J, mouse, ip, 50 mg/kg, plasma concentration, Mean
readout: concentration at 8 h

Lab note: CCO[C@@H]1OC(=O)C[C@@H]1NC(=O)[C@@H]1CCCN1C(=O)[C@@H](NC(=O)c1ccc(N)c(Cl)c1)C(C)(C)C gave concentration at 8 h of 320 nM

----------
assay: in vivo; conditions: female, C57BL/6J, mouse, ip, 50 mg/kg, Cmax in CSF, Mouse 1
readout: Cmax

Lab note: CCO[C@@H]1OC(=O)C[C@@H]1NC(=O)[C@@H]1CCCN1C(=O)[C@@H](NC(=O)c1ccc(N)c(Cl)c1)C(C)(C)C gave Cmax of 210 nM

----------
experiment: in vivo; conditions: female, C57BL/6J, mouse, ip, 50 mg/kg, MRTinf in plasma, Mean
readout: MRT inf
Mention the unit after the number when you answer.

Lab note: CCO[C@@H]1OC(=O)C[C@@H]1NC(=O)[C@@H]1CCCN1C(=O)[C@@H](NC(=O)c1ccc(N)c(Cl)c1)C(C)(C)C [VX-765] gave MRT inf of 5.22 h

----------
experiment: in vivo; details: female, C57BL/6J, mouse, ip, 50 mg/kg, CSF concentration, Mean
readout: concentration at 6 h (nM)
Write down the numeric answer in nM and omit the unit.

Lab note: CCO[C@@H]1OC(=O)C[C@@H]1NC(=O)[C@@H]1CCCN1C(=O)[C@@H](NC(=O)c1ccc(N)c(Cl)c1)C(C)(C)C gave concentration at 6 h of 60

----------
test: in vivo; settings: female, C57BL/6J, mouse, ip, 50 mg/kg, CSF concentration, Mean
readout: concentration at 3 h (nM)
Write down the numeric answer in nM and omit the unit.

Lab note: CCO[C@@H]1OC(=O)C[C@@H]1NC(=O)[C@@H]1CCCN1C(=O)[C@@H](NC(=O)c1ccc(N)c(Cl)c1)C(C)(C)C [VX-765] gave concentration at 3 h of 60

----------
test: in vivo; details: female, C57BL/6J, mouse, ip, 50 mg/kg, plasma concentration, Mouse 1
readout: concentration at 0.5 h (nM)
Write down the numeric answer in nM and omit the unit.

Lab note: CCO[C@@H]1OC(=O)C[C@@H]1NC(=O)[C@@H]1CCCN1C(=O)[C@@H](NC(=O)c1ccc(N)c(Cl)c1)C(C)(C)C gave concentration at 0.5 h of 1540

----------
assay: VX-765 and VRT-043198 pharmacokinetics (LC-MS/MS) in plasma, whole brain and CSF after a single IP dose of VX-765; details: read-out: Cmax in brain, Mean; whole brain; single IP 50 mg/kg VX-765
readout: Cmax (nM)
Write down the numeric answer in nM and omit the unit.

Lab note: CC(C)(C)[C@H](NC(=O)c1ccc(N)c(Cl)c1)C(=O)N1CCC[C@H]1C(=O)N[C@H](C=O)CC(=O)O gave Cmax of 1700

----------
experiment: in vivo; details: female, C57BL/6J, mouse, ip, 50 mg/kg, plasma concentration, Mouse 1
readout: concentration at 0.25 h (nM)
Write down the numeric answer in nM and omit the unit.

Lab note: CCO[C@@H]1OC(=O)C[C@@H]1NC(=O)[C@@H]1CCCN1C(=O)[C@@H](NC(=O)c1ccc(N)c(Cl)c1)C(C)(C)C [VX-765] gave concentration at 0.25 h of 310

----------
assay: in vivo; settings: female, C57BL/6J, mouse, ip, 50 mg/kg, plasma concentration, Mouse 2
readout: concentration at 8 h (nM)
Write down the numeric answer in nM and omit the unit.

Lab note: CCO[C@@H]1OC(=O)C[C@@H]1NC(=O)[C@@H]1CCCN1C(=O)[C@@H](NC(=O)c1ccc(N)c(Cl)c1)C(C)(C)C [VX-765] gave concentration at 8 h of 450

----------
test: in vivo; conditions: female, C57BL/6J, mouse, ip, 50 mg/kg, MRTinf in plasma, Mouse 1
readout: MRT inf (h)
Write down the numeric answer in h and omit the unit.

Lab note: CCO[C@@H]1OC(=O)C[C@@H]1NC(=O)[C@@H]1CCCN1C(=O)[C@@H](NC(=O)c1ccc(N)c(Cl)c1)C(C)(C)C [VX-765] gave MRT inf of 4.8

----------
assay: in vivo; conditions: female, C57BL/6J, mouse, ip, 50 mg/kg, plasma concentration, Mouse 1
readout: concentration at 8 h (nM)
Write down the numeric answer in nM and omit the unit.

Lab note: CCO[C@@H]1OC(=O)C[C@@H]1NC(=O)[C@@H]1CCCN1C(=O)[C@@H](NC(=O)c1ccc(N)c(Cl)c1)C(C)(C)C [VX-765] gave concentration at 8 h of 200

----------
experiment: in vivo; conditions: female, C57BL/6J, mouse, ip, 50 mg/kg, plasma concentration, Mouse 1
readout: concentration at 3 h
Mention the unit after the number when you answer.

Lab note: CCO[C@@H]1OC(=O)C[C@@H]1NC(=O)[C@@H]1CCCN1C(=O)[C@@H](NC(=O)c1ccc(N)c(Cl)c1)C(C)(C)C [VX-765] gave concentration at 3 h of 450 nM

----------
assay: in vivo; details: female, C57BL/6J, mouse, ip, 50 mg/kg, CSF concentration, Mean
readout: concentration at 0.5 h (nM)
Write down the numeric answer in nM and omit the unit.

Lab note: CCO[C@@H]1OC(=O)C[C@@H]1NC(=O)[C@@H]1CCCN1C(=O)[C@@H](NC(=O)c1ccc(N)c(Cl)c1)C(C)(C)C gave concentration at 0.5 h of 620
